Target Desc: Adenosine receptor A1 (Homo sapiens) (UniProt P30542)
Measurement Protocol: Percentage of response to 10 uM of PD-81723 on CHO cells expressing the cloned human A1-adenosine receptor at 10 uM concentration
Format: functional, cell-based

- Smiles Str: "Nc1sc2c(c1C(=O)c1ccc(Cl)cc1)CCCCCC2"
  Response [%]: 68
- Smiles Str: "Cc1sc(N)c(C(=O)c2ccccc2)c1C"
  Response [%]: 19
- Smiles Str: "Nc1sccc1C(=O)c1ccccc1"
  Response [%]: 28
- Smiles Str: "Nc1sc2c(c1C(=O)c1ccc(Cl)cc1)CCNC2"
  Response [%]: 9
- Smiles Str: "Nc1sc2c(c1C(=O)c1ccc(Cl)cc1)CCN(CCCc1ccccc1)C2"
  Response [%]: 31
- Smiles Str: "Nc1sc2c(c1C(=O)c1ccc(F)cc1)CCCCC2"
  Response [%]: 61
- Smiles Str: "Cc1sc(N)c(C(=O)c2cccc(C(F)(F)F)c2)c1C"
  Response [%]: 100
- Smiles Str: "Nc1sc2c(c1C(=O)c1ccccc1)CCN(CCc1ccc([N+](=O)[O-])cc1)C2"
  Response [%]: 31
- Smiles Str: "Nc1sc2c(c1C(=O)c1ccccc1)CCCC2"
  Response [%]: 77
- Smiles Str: "COc1ccc(C(=O)c2c(N)sc3c2CCC3)cc1"
  Response [%]: 42
- Smiles Str: "Nc1sc2c(c1C(=O)c1ccc(F)cc1)CCCC2"
  Response [%]: 83
- Smiles Str: "Nc1sc2c(c1C(=O)c1cccc(C(F)(F)F)c1)CCN(CCCc1ccccc1)C2"
  Response [%]: 22
- Smiles Str: "Nc1sc2c(c1C(=O)c1ccc(Cl)cc1)CCCCC2"
  Response [%]: 72
- Smiles Str: "Nc1sc2c(c1C(=O)c1ccccc1)SCC2"
  Response [%]: 68
- Smiles Str: "Nc1sc2c(c1C(=O)c1ccccc1)CCNC2"
  Response [%]: 12
- Smiles Str: "COc1ccc(C(=O)c2c(N)sc3c2CCCC3)cc1"
  Response [%]: 71
- Smiles Str: "Nc1sc2c(c1C(=O)c1ccc(Br)cc1)CCCC2"
  Response [%]: 67
- Smiles Str: "Nc1sc2c(c1C(=O)c1ccc(Cl)cc1)CCCC2"
  Response [%]: 86
- Smiles Str: "Nc1sc2c(c1C(=O)c1ccc(Br)cc1)CCC2"
  Response [%]: 72
- Smiles Str: "Nc1sccc1C(=O)c1ccc(Cl)cc1"
  Response [%]: 25
- Smiles Str: "Cc1sc(N)c(C(=O)c2ccc(Cl)cc2)c1C"
  Response [%]: 92
- Smiles Str: "COc1ccc(C(=O)c2c(N)sc3c2CCCCC3)cc1"
  Response [%]: 36
- Smiles Str: "Nc1sc2c(c1C(=O)c1ccccc1)CCC2"
  Response [%]: 82
- Smiles Str: "Nc1sc2c(c1C(=O)c1ccc(F)cc1)CCC2"
  Response [%]: 65
- Smiles Str: "Nc1sc2c(c1C(=O)c1ccc(-c3ccccc3)cc1)CCCC2"
  Response [%]: 68
- Smiles Str: "Nc1sc2c(c1C(=O)c1ccccc1)CCCCC2"
  Response [%]: 54
- Smiles Str: "Nc1sc2c(c1C(=O)c1cccc(C(F)(F)F)c1)CCN(Cc1ccccc1)C2"
  Response [%]: 85

----------
Target Desc: Adenosine receptor A1 (Homo sapiens)
Measurement Protocol: Percentage of response to 10 uM of PD-81723 on CHO cells expressing the cloned human A1-adenosine receptor at 0.1 uM concentration
Assay type: functional, cell-based
Classes (Response): low interval: < 20%; middle interval: ≥ 20% and < 30%; high interval: ≥ 30%

- Smiles Str: "Nc1sc2c(c1C(=O)c1ccc(Cl)cc1)CCN(CCc1ccccc1)C2"
  Class: "high interval"
- Smiles Str: "CCOC(=O)CN1CCc2c(sc(N)c2C(=O)c2ccc(Cl)cc2)C1"
  Class: "low interval"
- Smiles Str: "Nc1sccc1C(=O)c1ccc(Cl)cc1"
  Class: "low interval"
- Smiles Str: "Nc1sc2c(c1C(=O)c1ccc(-c3ccccc3)cc1)CCCC2"
  Class: "low interval"
- Smiles Str: "Nc1sc2c(c1C(=O)c1ccc(Cl)cc1)CCCCC2"
  Class: "middle interval"
- Smiles Str: "Nc1sc2c(c1C(=O)c1ccc(F)cc1)CCCCC2"
  Class: "middle interval"
- Smiles Str: "Nc1sc2c(c1C(=O)c1cccc(C(F)(F)F)c1)CCN(Cc1ccccc1)C2"
  Class: "low interval"
- Smiles Str: "Nc1sc2c(c1C(=O)c1ccc(Br)cc1)CCCC2"
  Class: "high interval"
- Smiles Str: "Nc1sc2c(c1C(=O)c1ccc(Cl)cc1)CCCCCC2"
  Class: "middle interval"
- Smiles Str: "Nc1sc2c(c1C(=O)c1ccc(-c3ccccc3)cc1)CCN(C(=O)OCc1ccccc1)C2"
  Class: "low interval"
- Smiles Str: "Nc1sc2c(c1C(=O)c1ccc(Cl)cc1)CCN(CCCc1ccccc1)C2"
  Class: "low interval"
- Smiles Str: "Nc1sc2c(c1C(=O)c1ccc(Br)cc1)CCC2"
  Class: "high interval"
- Smiles Str: "Nc1sc2c(c1C(=O)c1ccccc1)CCC2"
  Class: "high interval"
- Smiles Str: "Nc1sccc1C(=O)c1ccccc1"
  Class: "high interval"
- Smiles Str: "Nc1sc2c(c1C(=O)c1ccc(Cl)cc1)CCCC2"
  Class: "high interval"
- Smiles Str: "Nc1sc2c(c1C(=O)c1ccc(Cl)cc1)CCNC2"
  Class: "low interval"
- Smiles Str: "Nc1sc2c(c1C(=O)c1ccccc1)CCCC2"
  Class: "low interval"
- Smiles Str: "Cc1sc(N)c(C(=O)c2cccc(C(F)(F)F)c2)c1C"
  Class: "low interval"

----------
Target Desc: Adenosine receptor A1 (Homo sapiens) (UniProt P30542)
Sequence (whole entry): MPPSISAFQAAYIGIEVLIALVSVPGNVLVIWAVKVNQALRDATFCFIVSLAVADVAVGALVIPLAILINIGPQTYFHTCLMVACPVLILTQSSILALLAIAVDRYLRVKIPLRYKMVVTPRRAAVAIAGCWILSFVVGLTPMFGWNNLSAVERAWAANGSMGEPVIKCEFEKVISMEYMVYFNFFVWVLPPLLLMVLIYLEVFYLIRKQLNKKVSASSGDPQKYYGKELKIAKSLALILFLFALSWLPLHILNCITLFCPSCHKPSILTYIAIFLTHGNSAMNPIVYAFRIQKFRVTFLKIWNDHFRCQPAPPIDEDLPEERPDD
Measurement Protocol: Percentage of response to 10 uM of PD-81723 on CHO cells expressing the cloned human A1-adenosine receptor at 1 uM concentration
Assay type: functional, cell-based
Entries and their Response values follow.
Readout Type: Response (%)

- Smiles Str: "Nc1sc2c(c1C(=O)c1ccccc1)CCCCC2"
  Units Symbol: "%"
  Val: 29
- Smiles Str: "Nc1sc2c(c1C(=O)c1ccc(Br)cc1)CCC2"
  Units Symbol: "%"
  Val: 53
- Smiles Str: "COc1ccc(C(=O)c2c(N)sc3c2CCCCC3)cc1"
  Units Symbol: "%"
  Val: 54
- Smiles Str: "Nc1sc2c(c1C(=O)c1cccc(C(F)(F)F)c1)CCN(CCCc1ccccc1)C2"
  Units Symbol: "%"
  Val: 7
- Smiles Str: "Nc1sccc1C(=O)c1ccccc1"
  Units Symbol: "%"
  Val: 26
- Smiles Str: "Cc1sc(N)c(C(=O)c2cccc(C(F)(F)F)c2)c1C"
  Units Symbol: "%"
  Val: 40
- Smiles Str: "Nc1sc2c(c1C(=O)c1ccccc1)CCNC2"
  Units Symbol: "%"
  Val: 9
- Smiles Str: "COc1ccc(C(=O)c2c(N)sc3c2CCC3)cc1"
  Units Symbol: "%"
  Val: 43
- Smiles Str: "Nc1sc2c(c1C(=O)c1ccc(Cl)cc1)CCNC2"
  Units Symbol: "%"
  Val: 12
- Smiles Str: "Nc1sc2c(c1C(=O)c1ccccc1)CCC2"
  Units Symbol: "%"
  Val: 29
- Smiles Str: "Nc1sc2c(c1C(=O)c1ccc(Cl)cc1)CCCCC2"
  Units Symbol: "%"
  Val: 42
- Smiles Str: "Nc1sc2c(c1C(=O)c1ccc(Cl)cc1)CCN(CCc1ccccc1)C2"
  Units Symbol: "%"
  Val: 32
- Smiles Str: "COc1ccc(C(=O)c2c(N)sc3c2CCCC3)cc1"
  Units Symbol: "%"
  Val: 44
- Smiles Str: "Nc1sc2c(c1C(=O)c1ccc(Cl)cc1)CCN(CCCc1ccccc1)C2"
  Units Symbol: "%"
  Val: 15
